System: 947758-054-R-J2-PDC spheroid growth, percent test/control
test_details: Anticancer human tumor 947758-054-R-J2-PDC patient-derived colon adenocarcinoma cell line growth inhibition [CLK]
condition_parameters: second compound 3.16 µM; first compound 0.01 µM; active compounds read low; spheroids with HUVEC and MSC
experimental_endpoint: viability, T/C (%)
Lab book: enter the figure in %, no units written.

Task: What does the record list as viability, T/C for Cn1ncnc1[C@H]1c2n[nH]c(=O)c3cc(F)cc(c23)N[C@@H]1c1ccc(F)cc1 + CNC(=O)c1ccc(Nc2nc(OC3CCCC3)c3c(-c4ccc5nc(C)oc5c4)c[nH]c3n2)c(OC)c1 ?
Output: 42.6

Task: What does the record list as viability, T/C for CCc1c2c(nc3ccc(O)cc13)-c1cc3c(c(=O)n1C2)COC(=O)[C@]3(O)CC + CNC(=O)c1ccc(Nc2nc(OC3CCCC3)c3c(-c4ccc5nc(C)oc5c4)c[nH]c3n2)c(OC)c1 ?
Output: 16.2

Task: What does the record list as viability, T/C for COc1c(OCCCN2CCOCC2)ccc2c3n(c(=NC(=O)c4cnc(N)nc4)nc12)CCN3 + CNC(=O)c1ccc(Nc2nc(OC3CCCC3)c3c(-c4ccc5nc(C)oc5c4)c[nH]c3n2)c(OC)c1 ?
Output: 17.7

Task: What does the record list as viability, T/C for Cn1ncnc1[C@H]1c2n[nH]c(=O)c3cc(F)cc(c23)N[C@@H]1c1ccc(F)cc1 + CN1CCN(c2cc(C(=O)Nc3cc4cc(-c5cnn(C)c5)ccc4cn3)ccn2)CC1 ?
Output: 0.13

Task: What does the record list as viability, T/C for CCc1c2c(nc3ccc(O)cc13)-c1cc3c(c(=O)n1C2)COC(=O)[C@]3(O)CC + CN1CCN(c2cc(C(=O)Nc3cc4cc(-c5cnn(C)c5)ccc4cn3)ccn2)CC1 ?
Output: 0.26

====

Tested on: 947758-054-R-J2-PDC spheroid growth, percent test/control
test_details: Anticancer human tumor 947758-054-R-J2-PDC cell line growth inhibition [CLK]; active = viability on the fitted dose curve at most 10% of control; inactive = the rest;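 note: spheroids exposed to compounds for one week before readout; 100% = DMSO vehicle control wells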
condition_parameters: second compound 3.16 µM; first compound 0.0949 µM; spheroids with HUVEC and MSC
Pick one: active, inactive

Task: Tell me the assay call for C=CC(=O)Nc1cc(Nc2nccc(-c3cn(C)c4ccccc34)n2)c(OC)cc1N(C)CCN(C)C + CN1CCN(c2cc(C(=O)Nc3cc4cc(-c5cnn(C)c5)ccc4cn3)ccn2)CC1 please.
Output: active

Task: Tell me the assay call for CC(C)CC(NC(=O)C(Cc1ccccc1)NC(=O)c1cnccn1)B(O)O (stereo unspecified) + CN1CCN(c2cc(C(=O)Nc3cc4cc(-c5cnn(C)c5)ccc4cn3)ccn2)CC1 please.
Output: active

Task: Tell me the assay call for NC(=O)C(=Cn1cnc(-c2cc(C(F)(F)F)cc(C(F)(F)F)c2)n1)c1cncnc1 + CN1CCN(c2cc(C(=O)Nc3cc4cc(-c5cnn(C)c5)ccc4cn3)ccn2)CC1 please.
Output: active

Task: Tell me the assay call for NC(=O)C(=Cn1cnc(-c2cc(C(F)(F)F)cc(C(F)(F)F)c2)n1)c1cncnc1 + CNC(=O)c1ccc(Nc2nc(OC3CCCC3)c3c(-c4ccc5nc(C)oc5c4)c[nH]c3n2)c(OC)c1 please.
Output: active

Task: Tell me the assay call for C=CC(=O)Nc1cc(Nc2nccc(-c3cn(C)c4ccccc34)n2)c(OC)cc1N(C)CCN(C)C + CNC(=O)c1ccc(Nc2nc(OC3CCCC3)c3c(-c4ccc5nc(C)oc5c4)c[nH]c3n2)c(OC)c1 please.
Output: inactive

Task: Tell me the assay call for CC(C)CC(NC(=O)C(Cc1ccccc1)NC(=O)c1cnccn1)B(O)O (stereo unspecified) + CNC(=O)c1ccc(Nc2nc(OC3CCCC3)c3c(-c4ccc5nc(C)oc5c4)c[nH]c3n2)c(OC)c1 please.
Output: active

====

Tested on: 947758-054-R-J2-PDC spheroid growth, percent test/control
test_details: Anticancer human tumor 947758-054-R-J2-PDC cell line growth inhibition [CLK]; active = viability on the fitted dose curve at most 10% of control; inactive = the rest;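 note: spheroids exposed to compounds for one week before readout; 100% = DMSO vehicle control wells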
condition_parameters: second compound 1 µM; first compound 0.01 µM; spheroids with HUVEC and MSC
Pick one: active, inactive

Task: Tell me the assay call for CCN1CCN(Cc2ccc(Nc3ncc(F)c(-c4cc(F)c5nc(C)n(C(C)C)c5c4)n3)nc2)CC1 + CN1CCN(c2cc(C(=O)Nc3cc4cc(-c5cnn(C)c5)ccc4cn3)ccn2)CC1 please.
Output: active

Task: Tell me the assay call for Cn1ncnc1[C@H]1c2n[nH]c(=O)c3cc(F)cc(c23)N[C@@H]1c1ccc(F)cc1 + CNC(=O)c1ccc(Nc2nc(OC3CCCC3)c3c(-c4ccc5nc(C)oc5c4)c[nH]c3n2)c(OC)c1 please.
Output: inactive

Task: Tell me the assay call for COc1c(OCCCN2CCOCC2)ccc2c3n(c(=NC(=O)c4cnc(N)nc4)nc12)CCN3 + CNC(=O)c1ccc(Nc2nc(OC3CCCC3)c3c(-c4ccc5nc(C)oc5c4)c[nH]c3n2)c(OC)c1 please.
Output: inactive

====

Test system: 947758-054-R-J2-PDC spheroid growth, percent test/control
test_details: Anticancer human tumor 947758-054-R-J2-PDC cell line growth inhibition [CLK]; active = viability on the fitted dose curve at most 10% of control; inactive = the rest;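 note: spheroids exposed to compounds for one week before readout; 100% = DMSO vehicle control wells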
condition_parameters: second compound 3.16 µM; first compound 10 µM; spheroids with HUVEC and MSC
Pick one: yes (1) for active, no (0) for inactive

Task: Tell me the assay call for COc1ccc([C@@H](O)c2cc(-c3ncnc4cc(N5CCOCC5)ccc34)c(F)cc2Cl)nn1 + CNC(=O)c1ccc(Nc2nc(OC3CCCC3)c3c(-c4ccc5nc(C)oc5c4)c[nH]c3n2)c(OC)c1 please.
Output: yes (1)

Task: Tell me the assay call for CC(CO)NC(=O)c1cc(-c2ccc(Cl)cc2)nn(-c2cnn(C)c2)c1=O (stereo not given) + CNC(=O)c1ccc(Nc2nc(OC3CCCC3)c3c(-c4ccc5nc(C)oc5c4)c[nH]c3n2)c(OC)c1 please.
Output: no (0)

Task: Tell me the assay call for Nc1ccn(C2OC(CO)C(O)C2(F)F)c(=O)n1 (stereo not given) + CN1CCN(c2cc(C(=O)Nc3cc4cc(-c5cnn(C)c5)ccc4cn3)ccn2)CC1 please.
Output: yes (1)

Task: Tell me the assay call for CC(Nc1ccc2c(c1)OCCn1cc(N3C(=O)OCC3C(F)F)nc1-2)C(N)=O (stereo not given) + CNC(=O)c1ccc(Nc2nc(OC3CCCC3)c3c(-c4ccc5nc(C)oc5c4)c[nH]c3n2)c(OC)c1 please.
Output: yes (1)

Task: Tell me the assay call for C=C(F)C(=O)N1CCN(c2nc(OCC3CCCN3C)nc3c2CCN(c2cccc4cccc(Cl)c24)C3)CC1CC#N (stereo not given) + CNC(=O)c1ccc(Nc2nc(OC3CCCC3)c3c(-c4ccc5nc(C)oc5c4)c[nH]c3n2)c(OC)c1 please.
Output: yes (1)

Task: Tell me the assay call for O=C(c1cc(Cc2n[nH]c(=O)c3ccccc23)ccc1F)N1CCN(C(=O)C2CC2)CC1 + CN1CCN(c2cc(C(=O)Nc3cc4cc(-c5cnn(C)c5)ccc4cn3)ccn2)CC1 please.
Output: yes (1)

Task: Tell me the assay call for COC1C=CCC(C)C(C)S(=O)(=O)NC(=O)c2ccc3c(c2)N(CC2CCC21)CC1(CCCc2cc(Cl)ccc21)CO3 (stereo not given) + CN1CCN(c2cc(C(=O)Nc3cc4cc(-c5cnn(C)c5)ccc4cn3)ccn2)CC1 please.
Output: yes (1)

Task: Tell me the assay call for CC(=O)O[C@H]1C(=O)[C@@]2(C)[C@H]([C@H](OC(=O)c3ccccc3)[C@]3(O)C[C@H](OC(=O)[C@H](O)[C@@H](NC(=O)c4ccccc4)c4ccccc4)C(C)=C1C3(C)C)[C@]1(OC(C)=O)CO[C@@H]1C[C@@H]2O + CNC(=O)c1ccc(Nc2nc(OC3CCCC3)c3c(-c4ccc5nc(C)oc5c4)c[nH]c3n2)c(OC)c1 please.
Output: no (0)

Task: Tell me the assay call for COC1C=CCC(C)C(C)S(=O)(=O)NC(=O)c2ccc3c(c2)N(CC2CCC21)CC1(CCCc2cc(Cl)ccc21)CO3 (stereo not given) + CNC(=O)c1ccc(Nc2nc(OC3CCCC3)c3c(-c4ccc5nc(C)oc5c4)c[nH]c3n2)c(OC)c1 please.
Output: no (0)

Task: Tell me the assay call for Nc1ccccc1NC(=O)c1ccc(CNC(=O)OCc2cccnc2)cc1 + CNC(=O)c1ccc(Nc2nc(OC3CCCC3)c3c(-c4ccc5nc(C)oc5c4)c[nH]c3n2)c(OC)c1 please.
Output: yes (1)

====

Test system: 947758-054-R-J2-PDC spheroid growth, percent test/control
test_details: Anticancer human tumor 947758-054-R-J2-PDC cell line growth inhibition [CLK]; active = viability on the fitted dose curve at most 10% of control; inactive = the rest;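 note: spheroids exposed to compounds for one week before readout; 100% = DMSO vehicle control wells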
condition_parameters: second compound 1 µM; first compound 0.003 µM; spheroids with HUVEC and MSC
Pick one: YES (active), NO (inactive)

Task: Tell me the assay call for C=CC(=O)Nc1cc(Nc2nccc(-c3cn(C)c4ccccc34)n2)c(OC)cc1N(C)CCN(C)C + CN1CCN(c2cc(C(=O)Nc3cc4cc(-c5cnn(C)c5)ccc4cn3)ccn2)CC1 please.
Output: YES

Task: Tell me the assay call for CC(C)CC(NC(=O)C(Cc1ccccc1)NC(=O)c1cnccn1)B(O)O (centres undefined) + CN1CCN(c2cc(C(=O)Nc3cc4cc(-c5cnn(C)c5)ccc4cn3)ccn2)CC1 please.
Output: YES

Task: Tell me the assay call for CC(C)CC(NC(=O)C(Cc1ccccc1)NC(=O)c1cnccn1)B(O)O (centres undefined) + CNC(=O)c1ccc(Nc2nc(OC3CCCC3)c3c(-c4ccc5nc(C)oc5c4)c[nH]c3n2)c(OC)c1 please.
Output: YES

Task: Tell me the assay call for C=CC(=O)Nc1cc(Nc2nccc(-c3cn(C)c4ccccc34)n2)c(OC)cc1N(C)CCN(C)C + CNC(=O)c1ccc(Nc2nc(OC3CCCC3)c3c(-c4ccc5nc(C)oc5c4)c[nH]c3n2)c(OC)c1 please.
Output: NO
